System: MCF7 breast
MEASUREMENT_NOTES: NCI tumour cell line growth inhibition, 48 h
Record form. Attribute: log10(TGI). Fill in for each entry.
Recorded TGI (log10, µM)

Request: Write down the reported log10(TGI) of CS(=O)(=O)CCNCc1ccc(-c2ccc3ncnc(Nc4ccc(OCc5ccccc5)c(Br)c4)c3c2)o1 , test system: MCF7 breast.
Response: 1.39

Request: For MCF7 breast, provide log10(TGI) of Nc1nc(N)c2cc(-c3ccccc3)cnc2n1 please.
Response: 1.64

Request: // fetch MCF7 breast log10(TGI) for Nc1c2ccccc2nc2ccc3c(=O)cc(-c4ccccc4)oc3c12
Response: 0.31

Request: # returns recorded log10(TGI) (system: MCF7 breast) for COC(=O)c1ccc(NC(=O)O/N=C(\Cl)C(C)C)cc1
Response: 1.28

Request: # value lookup — system MCF7 breast, readout log10(TGI), item Cc1occc1C(=S)Nc1ccc(Cl)c(C(=O)OC(C(C)C)C(C)C)c1
Response: 1.53
